Listing of recorded remaining glucose concentration in culture medium after 24 hours by entry.
# Tested on: 3T3-L1 adipocytes
# ASSAY: glucose consumption (remaining glucose) in culture medium of 3T3-L1 adipocytes
# Assay type: cell-based
# TEST SETTINGS: 30 μg/ml; culture medium of 3T3-L1 adipocytes after 24 hours; means ± SD, N = 3; control 310 ± 4.0
Kindly provide the numeric value in mg/dL only, without the unit symbol.

As a guide, the following entries are already answered.
| COMPOUND SMILES | MEASURED TARGET | VALUE UNIT | EXPERIMENTAL VALUE |
| --- | --- | --- | --- |
| O=C(/C=C/c1ccc(OCc2ccccc2)cc1)c1cc(Br)ccc1O | 3T3-L1 adipocytes | mg/dL | 256 |
| O=C(/C=C/c1ccc2c(c1)OCO2)c1ccccc1 | 3T3-L1 adipocytes | mg/dL | 252 |
| COc1cccc(/C=C/C(=O)c2cc(F)ccc2O)c1 | 3T3-L1 adipocytes | mg/dL | 297 |
| COc1cccc(/C=C/C(=O)c2ccc(Br)cc2)c1 | 3T3-L1 adipocytes | mg/dL | 257 |

Dear colleague, I am looking for the recorded remaining glucose concentration in culture medium after 24 hours of the following compound: `COc1ccc(/C=C/C(=O)c2ccccc2)cc1`
261
